B1: VH:VL chains; a variant is named by its letters at X, in order (parent)
chain 1: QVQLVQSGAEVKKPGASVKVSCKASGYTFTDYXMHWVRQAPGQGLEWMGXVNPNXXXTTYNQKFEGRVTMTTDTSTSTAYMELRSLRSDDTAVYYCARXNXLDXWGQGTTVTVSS
chain 2: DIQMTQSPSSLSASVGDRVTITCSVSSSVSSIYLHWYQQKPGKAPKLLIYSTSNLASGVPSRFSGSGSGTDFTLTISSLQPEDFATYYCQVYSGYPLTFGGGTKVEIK

variants of: B1; assay: yeast display scFab, FACS + sequencing
Measured parameter: non-specific binding call

Mutation id: YRRGDAGS
Observed result: binds
//
Mutation id: YRAGSSAD
Observed result: binds
//
Mutation id: SRGGAAWA
Observed result: binds
//
Mutation id: DRGRDDLV
Observed result: no binding
//
Mutation id: VKGRGAGY
Observed result: binds
//
Mutation id: VGGTGSGA
Observed result: no binding
//
Mutation id: YKKGGSGV
Observed result: binds
//
Mutation id: YAEESDWV
Observed result: no binding
//
Mutation id: FKGRGSGY
Observed result: binds
//
Mutation id: VERRGSWS
Observed result: no binding
//
Mutation id: SRAGDYLV
Observed result: no binding
//
Mutation id: VEGRGAVY
Observed result: no binding
